Values were extracted from patent US20120220577A1.

Target of assay: NMDA receptor glycine B site (Rattus norvegicus, UniProt P35439)
Measurement protocol: Calcium FLIPR studies, rat cortical neurons (NMDA/D-Serine induced intracellular calcium)
Format: cell-based
Parameters: Primary neurons are prepared from cortices of embryonal rats at day 17 of pregnancy; endogenous in cells; host or cells: primary rat cortical neurons (E17, 11-13 DIV)
Experimental setup: rat cortical neurons; stimulation with 30 μM NMDA and 1 μM D-Serine; antagonist pre-incubated 10 min; read-out: NMDA-FLIPR-rCTX-NAM - IC50
Experimental endpoint: IC50 (µM)

Some entries whose results are on file:
INSERT INTO assay_data (molecule, unit_abbrev, value_observed) VALUES
  ('O=C(COc1cc(C(=O)O)cc2cc(Cl)cc(Cl)c12)Nc1cccc(OCc2nnn[nH]2)c1', 'µM', 3.84),
  ('CC(Oc1cc(C(=O)O)cc2cc(Cl)cc(Cl)c12)C(=O)Nc1cccc(CO)c1 (centres unmarked)', 'µM', 7.32),
  ('O=C(O)c1cc(OCC(=O)N2Cc3ccccc3CC2C(=O)O)c2c(Cl)cc(Cl)cc2c1 (centres unmarked)', 'µM', 10.6),
  ('O=C(COc1cc(C(=O)O)cc2cc(Cl)cc(Cl)c12)NCc1cccnc1', 'µM', 1.39),
  ('O=C(COc1cc(C(=O)O)cc2cc(Cl)cc(Cl)c12)Nc1ccc(Cc2nnn[nH]2)cc1', 'µM', 5.75),
  ('CC(Oc1cc(C(=O)O)cc2cc(Cl)cc(Cl)c12)C(=O)Nc1ccc(CO)cc1 (centres unmarked)', 'µM', 4.66);

A = NCc1ccc(OCC(=O)O)c(NC(=O)COc2cc(C(=O)O)cc3cc(Cl)cc(Cl)c23)c1
B = O=C(O)c1cc(OCC(=O)N2CCOc3c(CO)cccc32)c2c(Cl)cc(Cl)cc2c1
Ask: Of A and B , which carries the smaller reported IC50 figure? Lab log: write the label of the selected item as the result.
Result: A
